Ref: patent US5061794A

System: P. vulgaris No. 33
run-description: in vitro antibacterial activity, agar plate dilution method (MIC)
Assay type: cell-based
condition-label: Proteus vulgaris, NO.33, 16 h, read-out: Minimum Inhibitory Concentration (MIC), *P. vulgaris No. 33, lactamase-producing strain; 10^6 CFU/ml
Exercise: state measured MIC for each of the compounds provided.
One number for each entry, in µg/mL.

C#CCON=C(C(=O)NC1C(=O)N2C(C(=O)O)=C(CSc3nc(C(=O)O)c(-c4ccc(O)c(O)c4)s3)CSC12)c1csc(N)n1 (stereo not drawn); 0.05
CC(C)(O/N=C(\C(=O)N[C@@H]1C(=O)N2C(C(=O)O)=C(CSc3nnc(-c4ccccc4)o3)CS[C@H]12)c1csc(N)n1)C(=O)O [compound 3, reference compound]; 0.39

Attention now shifts to the item below.
input: What does the record list as MIC for CO/N=C(\C(=O)N[C@@H]1C(=O)N2C(C(=O)O)=C(CSc3nc(-c4ccc(OC(C)=O)cc4)c(CC(=O)O)s3)CS[C@H]12)c1csc(N)n1 [compound 18, reference compound] ?
output: 0.1

---

Test system: Ps. cepacia 23
run-description: in vitro antibacterial activity, agar plate dilution method (MIC)
Format: cell-based, Pseudomonas cepacia
condition-label: Burkholderia cepacia, 16 h; Ps. cepacia 23; 10^6 CFU/ml; read-out: Minimum Inhibitory Concentration (MIC)
attribute-measured: MIC (µg/mL)
Answers are plain numbers, in µg/mL.

CO/N=C(\C(=O)N[C@@H]1C(=O)N2C(C(=O)O)=C(CSc3nnc(-c4ccc(OC(C)=O)c(OC(C)=O)c4)o3)CS[C@H]12)c1csc(N)n1; 0.1

Attention now shifts to the item below.
input: What does the record list as MIC for Nc1nc(C(=NOC2(C(=O)O)CC2)C(=O)NC2C(=O)N3C(C(=O)O)=C(CSc4nc(-c5ccc(O)c(O)c5)c(CC(=O)O)s4)CSC23)cs1 (centres unmarked) ?
output: 0.0125

---

Tested on: Ps. aeruginosa AKR17
run-description: in vitro antibacterial activity, agar plate dilution method (MIC)
Assay type: cell-based, Pseudomonas aeruginosa
condition-label: Pseudomonas aeruginosa, 16 h; Ps. aeruginosa AKR17; 10^6 CFU/ml; read-out: Minimum Inhibitory Concentration (MIC)
attribute-measured: MIC

For each listed entry, give its MIC.
1. C#CCO/N=C(\C(=O)N[C@@H]1C(=O)N2C(C(=O)O)=C(CSc3nnc(-c4ccc(O)c(O)c4)o3)CS[C@H]12)c1csc(N)n1 [compound 9]
2. CC(C)(O/N=C(\C(=O)N[C@@H]1C(=O)N2C(C(=O)O)=C(CSc3nnc(-c4ccc(O)cc4)o3)CS[C@H]12)c1csc(N)n1)C(=O)O [compound 4, reference compound]
3. C#CCO/N=C(\C(=O)N[C@@H]1C(=O)N2C(C(=O)O)=C(CSc3nnc(-c4ccc(O)c(O)c4)s3)CS[C@H]12)c1csc(N)n1 [Ex. 31]
4. Nc1nc(C(=NOCc2ccccc2)C(=O)NC2C(=O)N3C(C(=O)O)=C(CSc4nc(C(=O)O)c(-c5ccc(O)c(O)c5)s4)CSC23)cs1 (stereo not drawn) [Ex. 57]

output:
["> 100 µg/mL", "> 100 µg/mL", "100 µg/mL", "> 100 µg/mL"]

For each listed entry, give its MIC.
1. CC(C)(O/N=C(\C(=O)N[C@@H]1C(=O)N2C(C(=O)O)=C(CSc3ncc(-c4ccc(O)cc4)o3)CS[C@H]12)c1csc(N)n1)C(=O)O [compound 24, reference compound]
2. CO/N=C(\C(=O)N[C@@H]1C(=O)N2C(C(=O)O)=C(CSc3nnc(-c4ccc(O)c(O)c4)s3)CS[C@H]12)c1csc(N)n1 [Ex. 25]

output:
> 100 µg/mL
100 µg/mL
